What follows is a record of pIC50 for UniProtKB P53051.
Sequence (P53051 whole entry): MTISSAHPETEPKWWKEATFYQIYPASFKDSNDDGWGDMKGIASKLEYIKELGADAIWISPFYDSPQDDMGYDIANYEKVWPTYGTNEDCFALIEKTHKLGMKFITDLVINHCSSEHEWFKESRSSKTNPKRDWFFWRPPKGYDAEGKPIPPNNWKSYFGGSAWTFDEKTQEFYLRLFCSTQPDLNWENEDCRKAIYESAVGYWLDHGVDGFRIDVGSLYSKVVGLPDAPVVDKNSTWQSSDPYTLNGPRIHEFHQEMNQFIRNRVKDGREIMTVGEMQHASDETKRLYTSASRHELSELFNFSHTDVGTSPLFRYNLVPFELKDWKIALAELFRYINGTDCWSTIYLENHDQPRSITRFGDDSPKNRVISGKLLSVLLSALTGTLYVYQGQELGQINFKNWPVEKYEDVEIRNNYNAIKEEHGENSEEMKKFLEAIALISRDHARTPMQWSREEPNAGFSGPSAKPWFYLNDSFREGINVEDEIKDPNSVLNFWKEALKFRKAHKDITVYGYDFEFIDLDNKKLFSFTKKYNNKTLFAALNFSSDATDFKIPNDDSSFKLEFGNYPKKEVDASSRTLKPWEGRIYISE
Just the number, please; pIC50 means minus log10 of the concentration in mol/L.

1) OCCN1C[C@H](O)[C@@H](O)[C@H](O)[C@H]1CO ... 2.00

Query molecule follows.
Qu. Enter reported pIC50 observed with UniProtKB P53051 for OCCN1C[C@@H](F)[C@@H](O)[C@H](O)[C@H]1CO
Ans. 2.68

The measured values listed here are drawn from ChEMBL document CHEMBL1155187.
